Target: T1, recombinant protein of human BTLA extracellular domain (hBTLA-ECD-FC) (human, UniProt Q7Z6A9 31-157, biotin-labeled in the FACS blocking assays (site not stated))
T1 construct: extracellular domain; also called BTLA-Fc; biotin-labeled hBTLA; not shown: Fc of the self-constructed HX1-FC expression plasmid
T1 sequence (looked up): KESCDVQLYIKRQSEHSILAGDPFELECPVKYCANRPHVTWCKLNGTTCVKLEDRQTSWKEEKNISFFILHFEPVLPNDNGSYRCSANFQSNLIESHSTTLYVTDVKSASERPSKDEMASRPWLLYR
Assay: FACS, blocking of biotin-labeled hBTLA binding to hHVEM-293F cells
Below, each entry is listed alongside its reported IC50.
Enter your answer as a number in µg/mL; do not include the unit.

Some solved entries appear below for comparison.
- humanized antibody hu19 (antibody, V domains shown, It was detected with an anti-human IgG4 secondary antibody) VH: QVQLVQSGAEVKKPGASVKLSCKASGYNFKHTYAHWVRQAPGQGLEWIGRIDPANGNTKYDPKFQGRATMTADTASNTAYLELSSLRSEDTAVYYCVADHYGSSLLDYWGQGTLVTVSS VL: DIVMTQTPLSLSVTPGQPASISCKSSQSLLDSDGKTYLNWFQQRPGQSPRRLMHLVSKLDSGVPDRFSGSGSGTDFTLKISRVEAEDVGVYYCWQGTYFPYTFGQGTKLEIK: 0.162
- humanized antibody hu17 (antibody, V domains shown, also called hull [sic]; humanized antibody 17) VH: QVQLVQSGAEVKKPGASVKLSCKASGYNFKHTYAHWVRQAPGQGLEWIGRIDPANGNTKYDPKFQGRATMTADTASNTAYLELSSLRSEDTAVYYCVADHYGSSLLDYWGQGTLVTVSS VL: DIVMTQTPLSLSVTPGQPASISCKSSQSLLDSDGKTYLNWFQQRPGQSPRRLIYLVSKLDSGVPDRFSGSGSGTDFTLKISRVEAEDVGVYYCWQGTYFPYTFGQGTKLEIK: 0.143

Here is the next item to consider.
binder humanized antibody hu18 (antibody, IgG4, V domains shown, also called JS004; recombinant human anti-BTLA antibody) VH: QVQLVQSGAEVKKPGASVKLSCKASGYNFKHTYAHWVRQAPGQGLEWIGRIDPANGNTKYDPKFQGRATMTADTASNTAYLELSSLRSEDTAVYYCVADHYGSSLLDYWGQGTLVTVSS VL: DVVMTQTPLSLSVTPGQPASISCKSSQSLLDSDGKTYLNWFQQRPGQSPRRLIYLVSKLDSGVPDRFSGSGSGTDFTLKISRVEAEDVGVYYCWQGTYFPYTFGQGTKLEIK , IC50 observed: 0.172
